System Under Test: Bromodomain testis-specific protein (Homo sapiens)
Run Description: BRDT (1,2) DiscoverX BROMOscan
Experimental Endpoint: Kd (nM)
Answers are plain numbers, in nM.

I would be grateful if you could share the reported Kd for Cc1cc2c(-c3ccco3)cnc(N[C@@H]3CCN(C)C[C@H]3C(=O)NC3CCCCC3)c2[nH]c1=O .
100

----------
System Under Test: CREB-binding protein (Homo sapiens, UniProt Q92793)
Run Description: CREBBP DiscoverX BROMOscan
Experimental Endpoint: pKd
Give bare numbers, as −log10 of the molar value.

I would be grateful if you could share the reported pKd for Cc1cc2c(-c3ccco3)cnc(N[C@@H]3CCN(C)C[C@H]3C(=O)NC3CCCCC3)c2[nH]c1=O .
4.50

----------
System Under Test: Bromodomain-containing protein 7 (Homo sapiens)
Sequence (Q9NPI1 whole entry): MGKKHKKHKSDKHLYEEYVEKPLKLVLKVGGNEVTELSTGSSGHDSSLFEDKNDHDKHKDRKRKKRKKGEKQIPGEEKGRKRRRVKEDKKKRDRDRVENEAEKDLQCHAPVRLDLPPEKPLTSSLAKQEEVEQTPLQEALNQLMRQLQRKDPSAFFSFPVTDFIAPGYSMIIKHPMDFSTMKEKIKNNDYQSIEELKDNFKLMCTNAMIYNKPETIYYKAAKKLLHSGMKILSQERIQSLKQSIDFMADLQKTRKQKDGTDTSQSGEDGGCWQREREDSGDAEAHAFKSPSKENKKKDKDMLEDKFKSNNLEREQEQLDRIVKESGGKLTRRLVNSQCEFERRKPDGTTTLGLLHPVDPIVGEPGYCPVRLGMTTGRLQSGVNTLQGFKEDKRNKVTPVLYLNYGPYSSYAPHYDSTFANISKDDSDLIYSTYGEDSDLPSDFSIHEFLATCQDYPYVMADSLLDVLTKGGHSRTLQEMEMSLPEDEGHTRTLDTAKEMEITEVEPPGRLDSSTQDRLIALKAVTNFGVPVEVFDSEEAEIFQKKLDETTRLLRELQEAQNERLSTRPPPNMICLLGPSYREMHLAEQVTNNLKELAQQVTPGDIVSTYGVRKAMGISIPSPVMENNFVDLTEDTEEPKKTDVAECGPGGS
Run Description: BRD7 DiscoverX BROMOscan
Experimental Endpoint: Kd
Answer with the value and then the unit.

I would be grateful if you could share the reported Kd for Cc1cc2c(-c3ccco3)cnc(N[C@@H]3CCN(C)C[C@H]3C(=O)NC3CCCCC3)c2[nH]c1=O [GSK789] .
25.1 µM

----------
System Under Test: Bromodomain-containing protein 1 (Homo sapiens)
Run Description: BRD1 DiscoverX BROMOscan
Experimental Endpoint: Kd
Answer with the value and then the unit.

Give the reported Kd for Cc1cc2c(-c3ccco3)cnc(N[C@@H]3CCN(C)C[C@H]3C(=O)NC3CCCCC3)c2[nH]c1=O (system: Bromodomain-containing protein 1 (Homo sapiens)).
31.6 µM

----------
System Under Test: Bromodomain-containing protein 8 (Homo sapiens)
Sequence (Q9H0E9 whole entry): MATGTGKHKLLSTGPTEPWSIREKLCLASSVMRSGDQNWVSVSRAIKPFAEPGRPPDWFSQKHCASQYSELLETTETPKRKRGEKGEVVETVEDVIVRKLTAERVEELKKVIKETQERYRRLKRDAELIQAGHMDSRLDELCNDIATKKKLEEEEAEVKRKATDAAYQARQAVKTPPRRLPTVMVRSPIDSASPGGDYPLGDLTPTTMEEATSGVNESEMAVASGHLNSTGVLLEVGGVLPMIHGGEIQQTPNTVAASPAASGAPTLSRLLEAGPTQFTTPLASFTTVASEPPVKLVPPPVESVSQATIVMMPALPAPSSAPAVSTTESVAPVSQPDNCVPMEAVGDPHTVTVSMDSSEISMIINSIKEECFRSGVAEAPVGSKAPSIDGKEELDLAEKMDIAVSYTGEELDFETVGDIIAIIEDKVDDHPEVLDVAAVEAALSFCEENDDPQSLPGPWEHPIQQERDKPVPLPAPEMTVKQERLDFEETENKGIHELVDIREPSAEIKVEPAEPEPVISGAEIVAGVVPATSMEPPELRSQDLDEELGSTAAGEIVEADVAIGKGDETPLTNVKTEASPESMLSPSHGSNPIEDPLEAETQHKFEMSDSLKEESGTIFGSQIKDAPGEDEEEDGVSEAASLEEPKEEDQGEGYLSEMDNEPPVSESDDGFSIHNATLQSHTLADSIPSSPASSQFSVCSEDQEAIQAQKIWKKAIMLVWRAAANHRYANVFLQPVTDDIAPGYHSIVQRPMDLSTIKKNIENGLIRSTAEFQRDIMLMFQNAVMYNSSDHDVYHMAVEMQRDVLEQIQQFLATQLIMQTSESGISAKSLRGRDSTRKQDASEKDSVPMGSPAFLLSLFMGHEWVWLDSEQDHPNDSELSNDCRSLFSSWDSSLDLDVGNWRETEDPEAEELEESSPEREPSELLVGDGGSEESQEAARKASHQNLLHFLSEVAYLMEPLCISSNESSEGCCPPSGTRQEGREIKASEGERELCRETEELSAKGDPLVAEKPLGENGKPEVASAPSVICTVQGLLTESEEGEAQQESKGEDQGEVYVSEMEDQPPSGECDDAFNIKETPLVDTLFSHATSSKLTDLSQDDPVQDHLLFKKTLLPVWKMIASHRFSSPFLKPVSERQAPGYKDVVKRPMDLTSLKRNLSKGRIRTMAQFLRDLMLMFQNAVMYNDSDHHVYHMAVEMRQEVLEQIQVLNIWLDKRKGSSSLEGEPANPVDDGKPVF
Run Description: BRD8 (BD1) DiscoverX BROMOscan
Experimental Endpoint: Kd

Give the reported Kd for Cc1cc2c(-c3ccco3)cnc(N[C@@H]3CCN(C)C[C@H]3C(=O)NC3CCCCC3)c2[nH]c1=O [GSK789] (system: Bromodomain-containing protein 8 (Homo sapiens)).
31.6 µM

----------
System Under Test: Transcription intermediary factor 1-alpha (Homo sapiens, UniProt O15164)
Sequence (O15164 whole entry): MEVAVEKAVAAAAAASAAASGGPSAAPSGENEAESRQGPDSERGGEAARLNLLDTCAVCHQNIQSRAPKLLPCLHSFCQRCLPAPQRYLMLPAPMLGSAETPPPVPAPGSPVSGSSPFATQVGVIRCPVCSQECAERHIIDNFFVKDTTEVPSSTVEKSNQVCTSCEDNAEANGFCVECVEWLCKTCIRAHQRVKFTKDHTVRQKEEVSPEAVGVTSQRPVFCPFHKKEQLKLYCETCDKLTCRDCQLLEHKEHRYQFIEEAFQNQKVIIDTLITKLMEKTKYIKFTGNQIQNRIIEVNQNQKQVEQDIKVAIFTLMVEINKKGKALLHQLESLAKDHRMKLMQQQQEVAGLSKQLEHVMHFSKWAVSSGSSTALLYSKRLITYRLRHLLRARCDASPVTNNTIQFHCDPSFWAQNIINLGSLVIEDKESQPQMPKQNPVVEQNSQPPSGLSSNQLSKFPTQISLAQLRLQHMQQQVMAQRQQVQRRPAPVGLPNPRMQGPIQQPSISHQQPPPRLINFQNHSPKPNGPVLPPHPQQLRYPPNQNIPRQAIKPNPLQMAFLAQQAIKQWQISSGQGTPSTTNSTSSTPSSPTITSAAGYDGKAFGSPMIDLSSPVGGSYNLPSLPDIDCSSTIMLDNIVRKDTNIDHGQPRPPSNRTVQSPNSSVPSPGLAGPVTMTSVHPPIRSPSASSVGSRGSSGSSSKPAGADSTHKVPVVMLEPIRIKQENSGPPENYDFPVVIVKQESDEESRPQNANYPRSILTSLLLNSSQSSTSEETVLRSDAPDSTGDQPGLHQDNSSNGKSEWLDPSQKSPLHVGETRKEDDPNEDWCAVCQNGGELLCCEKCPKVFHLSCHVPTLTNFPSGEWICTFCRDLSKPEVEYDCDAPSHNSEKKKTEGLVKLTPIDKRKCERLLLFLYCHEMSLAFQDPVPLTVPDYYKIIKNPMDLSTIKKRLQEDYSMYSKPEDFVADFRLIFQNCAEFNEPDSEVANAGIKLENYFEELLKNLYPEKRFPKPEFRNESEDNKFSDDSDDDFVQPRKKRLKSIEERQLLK
Run Description: TRIM24 (TIF1alpha) (PHD & BD) DiscoverX BROMOscan
Experimental Endpoint: pKd
Give bare numbers, as −log10 of the molar value.

I would be grateful if you could share the reported pKd for Cc1cc2c(-c3ccco3)cnc(N[C@@H]3CCN(C)C[C@H]3C(=O)NC3CCCCC3)c2[nH]c1=O .
4.50

----------
System Under Test: Bromodomain adjacent to zinc finger domain protein 2B (Homo sapiens, UniProt Q9UIF8)
Run Description: BAZ2B DiscoverX BROMOscan
Experimental Endpoint: pKd
Answers are plain numbers, as −log10 of the molar value.

I would be grateful if you could share the reported pKd for Cc1cc2c(-c3ccco3)cnc(N[C@@H]3CCN(C)C[C@H]3C(=O)NC3CCCCC3)c2[nH]c1=O [GSK789] .
4.50

----------
System Under Test: GABA-A receptor; anion channel
Run Description: GPCRScan assay: inhibition of GABAA/BZP
Experimental Endpoint: pKi
Numbers only, as −log10 of the molar value.

I would be grateful if you could share the reported pKi for Cc1cc2c(-c3ccco3)cnc(N[C@H]3CCN(C)C[C@@H]3C(=O)NC3CCCCC3)c2[nH]c1=O [GSK791] .
5.60

----------
System Under Test: Peregrin (Homo sapiens, UniProt P55201)
Sequence (P55201 whole entry): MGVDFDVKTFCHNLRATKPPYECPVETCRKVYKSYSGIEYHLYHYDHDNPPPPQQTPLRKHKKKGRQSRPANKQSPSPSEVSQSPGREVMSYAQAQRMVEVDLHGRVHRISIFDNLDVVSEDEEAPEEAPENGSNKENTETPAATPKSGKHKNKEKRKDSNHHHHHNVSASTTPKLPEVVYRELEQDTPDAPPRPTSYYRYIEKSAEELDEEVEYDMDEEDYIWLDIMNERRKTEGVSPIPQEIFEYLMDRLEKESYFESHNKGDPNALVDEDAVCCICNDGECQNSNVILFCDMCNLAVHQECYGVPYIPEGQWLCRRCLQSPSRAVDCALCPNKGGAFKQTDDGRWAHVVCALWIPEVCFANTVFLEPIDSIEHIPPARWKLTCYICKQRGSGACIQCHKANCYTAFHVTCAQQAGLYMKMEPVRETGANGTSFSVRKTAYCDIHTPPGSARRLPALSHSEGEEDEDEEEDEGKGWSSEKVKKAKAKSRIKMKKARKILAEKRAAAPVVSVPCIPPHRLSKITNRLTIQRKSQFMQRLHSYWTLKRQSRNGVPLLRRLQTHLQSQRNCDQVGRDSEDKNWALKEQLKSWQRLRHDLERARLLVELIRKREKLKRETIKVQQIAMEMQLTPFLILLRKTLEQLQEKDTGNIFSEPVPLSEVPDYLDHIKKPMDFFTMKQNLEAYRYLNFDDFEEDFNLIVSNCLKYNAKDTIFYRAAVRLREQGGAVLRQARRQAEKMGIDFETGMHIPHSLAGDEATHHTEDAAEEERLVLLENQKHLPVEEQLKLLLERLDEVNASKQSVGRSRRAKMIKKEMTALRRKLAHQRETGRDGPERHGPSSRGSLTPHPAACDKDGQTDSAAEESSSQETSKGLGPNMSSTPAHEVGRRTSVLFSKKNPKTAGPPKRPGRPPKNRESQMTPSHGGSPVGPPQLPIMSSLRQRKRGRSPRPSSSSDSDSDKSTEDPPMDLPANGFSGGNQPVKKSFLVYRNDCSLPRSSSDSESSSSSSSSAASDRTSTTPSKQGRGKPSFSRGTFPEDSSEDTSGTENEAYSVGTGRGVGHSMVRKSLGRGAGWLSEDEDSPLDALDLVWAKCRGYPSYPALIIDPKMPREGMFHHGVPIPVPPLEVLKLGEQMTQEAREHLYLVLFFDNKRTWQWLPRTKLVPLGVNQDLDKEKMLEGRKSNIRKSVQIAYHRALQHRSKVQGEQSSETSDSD
Run Description: BRPF1 DiscoverX BROMOscan
Experimental Endpoint: Kd (µM)
One number for each entry, in µM.

Give the reported Kd for Cc1cc2c(-c3ccco3)cnc(N[C@@H]3CCN(C)C[C@H]3C(=O)NC3CCCCC3)c2[nH]c1=O (system: Peregrin (Homo sapiens, UniProt P55201)).
31.6

Recorded values, source ChEMBL document CHEMBL4630905.
